# Test System: T1, 4H1544-bH
# T1 chain: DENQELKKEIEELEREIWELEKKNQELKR
# Protocol: two-hybrid library CCNG1;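 further: natural log of median RNA to DNA barcode read ratio; higher means stronger binding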
Reported Endpoint: interaction score

Solved entries (count: 2):
- Binder: "DENQELEKKIEELKRENWELKKKIQELER [4H1373-bH]"
  Measured Number: -0.374
- Binder: "DENQELEKKIEELERKNWELKKEIQELKR [4H1338-bH]"
  Measured Number: 0.712

a = DENQELKKEIEELEREIWELEKKNQELKR [4H1544-bH]
b = DENQELEKEIEELERKNWELKKEIQELER [4H1081-bH]
Asked: Lower value of interaction score belongs to which: a or b ? // respond with label for picked entry
Given back: b
